# Assay target: G-protein coupled receptor 151 (Homo sapiens)
# Experiment summary: activators of human GPR151, primary screen, cell-based, PathHunter beta-arrestin, luminescence (AID 1508602);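 further: 0% = median of compound wells and 100% = cells with positive control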
# Particulars: PathHunter beta-arrestin GPR151 cells, at 11.2 µM, active compounds read high
Among all 650,000 compounds or so, about 6,800 (1%) were called active. What follows is part of a selection rich in actives, with near analogues and random picks from the rest.
Quantity kind: activation (%)
Output spec: scalar in %, unitless text.

Recorded activation, per entry:
O=C(Nc1cccc(-c2nnc3n2CCCCC3)c1)c1ccc(=O)n(Cc2ccccc2)n1 = -1.56
CCN(CC)C(=O)C1CCCN(c2cccc(C(=O)NCCc3ccc(OC)cc3)n2)C1 (centres undefined) = 5.87
COCCN1C(=O)CC(CC(=O)NCc2nc3ccccc3[nH]2)(c2ccccc2C)C1=O (centres undefined) = 6.75
COCCN1C(=O)CC(CC(=O)N(C)C(C)C)(c2ccccc2F)C1=O (centres undefined) = -1.69
CCN(CC)C(=O)C1CCCN(c2nc3ncnc(NCCc4ccc(OC)cc4)c3[nH]2)C1 (centres undefined) = 0.885

Sample "O=C(Nc1ccc(F)c(Cl)c1)/C(=C/c1cccc([N+](=O)[O-])c1)NC(=O)c1cccs1" ; activation observed: 0.762

Sample "Cc1ccc(C)c(NC(=O)CN(C)S(=O)(=O)c2ccc3nc(-c4ccccc4)[nH]c3c2)c1" ; activation observed: -2.02

Sample CCN(CC)C(=O)C1CCCN(c2cccc(C(=O)NCCc3ccc(OC)cc3)c2)C1 (centres undefined) ; activation observed: -1.08

Sample "O=C1N[C@@H](COCc2ccccc2)C(=O)N2C[C@@H](NCc3ccsc3)C[C@@H]12" ; activation observed: 1.22

###

# Assay target: G-protein coupled receptor 151 (Homo sapiens) (UniProt Q8TDV0)
# Sequence (Q8TDV0 whole entry, looked up): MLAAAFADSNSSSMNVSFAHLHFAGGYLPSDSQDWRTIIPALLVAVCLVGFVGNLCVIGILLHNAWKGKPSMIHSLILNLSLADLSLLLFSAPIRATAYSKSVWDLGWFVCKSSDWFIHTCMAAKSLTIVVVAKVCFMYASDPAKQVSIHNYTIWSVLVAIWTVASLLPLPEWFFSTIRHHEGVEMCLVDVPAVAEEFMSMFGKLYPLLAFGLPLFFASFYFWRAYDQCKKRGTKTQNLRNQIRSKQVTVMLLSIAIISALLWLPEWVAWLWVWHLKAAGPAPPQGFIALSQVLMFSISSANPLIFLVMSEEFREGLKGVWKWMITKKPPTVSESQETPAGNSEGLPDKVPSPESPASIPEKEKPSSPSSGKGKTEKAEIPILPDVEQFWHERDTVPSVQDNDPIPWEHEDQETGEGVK
# Experiment summary: activators of human GPR151, primary screen, cell-based, PathHunter beta-arrestin, luminescence (AID 1508602);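 further: 0% = median of compound wells and 100% = cells with positive control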
# Particulars: PathHunter beta-arrestin GPR151 cells, at 11.2 µM
Hit rate of the full screen: of about 650,000 compounds, about 6,800 (1%) were called active. No stated cut-off is given here; in the data, active means activation above about 4.9%; inactive means the rest. For the sample, actives were picked, then their nearest neighbours and some compounds at random.
Pick one and only one: active, inactive

COc1cccc(-c2nnc(NC(=O)CSc3ccccc3)o2)c1 = active
COc1cccc(-c2nnc(SCC(=O)NCc3ccccc3)o2)c1 = inactive
Cc1cc(Oc2ncnc(N)c2[N+](=O)[O-])cc(C(C)C)c1 = inactive

Query: Status in this test for "CC1=NOC(=O)/C1=C/c1ccc(-c2cc(C)c(C)cc2[N+](=O)[O-])o1" ?
Result: inactive

Query: Status in this test for CCOc1ccc(N2C(=O)C3C4C=CC(C5CC45)C3C2=O)cc1 (stereo unspecified) ?
Result: inactive

###

# Assay target: G-protein coupled receptor 151 (Homo sapiens) (UniProt Q8TDV0)
# Experiment summary: activators of human GPR151, primary screen, cell-based, PathHunter beta-arrestin, luminescence (AID 1508602);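 further: 0% = median of compound wells and 100% = cells with positive control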
# Particulars: PathHunter beta-arrestin GPR151 cells, at 11.2 µM
The whole screen tested about 650,000 compounds, of which about 6,800 (1%) were called active. Cut-off read from the data, not from the text of the source: active = activation above about 4.9%; inactive = the rest. For the sample, actives were picked, then their nearest neighbours and some compounds at random.
Pick one and only one: Y (active), N (inactive)

Query: Status in this test for CCCCC(CCCC)=N/N=C1\NC(=O)C(CC(=O)O)S1 (stereo not drawn) ?
Result: N
